System: SIK
Details: concentration: 1 μM,replicates: in singlicate; n = 1;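 also: KINOMEscan kinase panel screen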
experimentalReadout: %Inh
Answer format reminder: number followed by unit.

Query: Give its %Inh value. Item: "COc1cc2c(Nc3ccc(NC(=O)c4ccccc4)cc3)ncnc2cc1OCCCN1CCOCC1"
Reply: 2%

Query: How about this molecule: CS(=O)c1ccc(-c2coc3ccc(-c4n[nH]c(=O)o4)cc23)cc1 (stereo not drawn)
Reply: 2%

Query: Quick one: "O=C(NCC1CC1)c1ccc(-c2cc(C(=O)NC3CC3)ccc2F)cc1"
Reply: 2%

* * *

Tested on: MEK5
Construct: gene MAP2K5
Details: concentration: 1 μM,replicates: in singlicate; n = 1
experimentalReadout: %Inh (%)
// note: answer is a bare numeric in %

Query: Which value of %Inh has been reported for "Cl.Nc1n[nH]c2cc(-c3ccccn3)ccc12" in the records?
Reply: 45

Query: Try this compound next: "Nc1nccc(-c2ccc3c(N)n[nH]c3c2)n1"
Reply: 38

Query: Do the same for "Cn1ccc2ncnc(Oc3ccc(NC(=O)Nc4cccc(C(F)(F)F)c4)c(Cl)c3)c21" please
Reply: 30

Query: And for CCNCC(Cc1ccccc1)NC(=O)c1cc(Br)c(-c2ccnc3[nH]ccc23)s1.Cl.Cl (centres unmarked) ?
Reply: 55

Query: Subsequent entry: "O=C(NCC1CC1)c1ccc(-c2cc(C(=O)NC3CC3)ccc2F)cc1"
Reply: 0

Query: Another compound to look at: "CN(c1ccc2c(c1)nc(NCc1ccc(F)cc1)n2C)c1ccnc(Nc2ccc(CS(C)(=O)=O)cc2)n1.Cl"
Reply: 97.9

Query: Again, but for "CC(C)c1nc(-c2cccc(NS(=O)(=O)c3ccccc3)c2)c(-c2ccnc(Nc3ccc4c(c3)CN(C)CC4)n2)s1"
Reply: 99.1

Query: What about this compound? "CCOC(=O)N1CCC(n2cnc(-c3ccc(F)cc3)c2-c2ccnc(N)n2)CC1"
Reply: 29

Query: Next record, please: "CNC(=O)c1ccccc1Nc1nc(Nc2cccc(CS(C)(=O)=O)c2)ncc1C.O=CO"
Reply: 99.9

Query: What do you get for "CCN1CCN(CCCC(=O)Nc2n[nH]c3nc(-c4ccc(O)cc4)c(Br)cc23)CC1" ?
Reply: 42

Query: Param item: "CC(C)S(=O)(=O)N1CCN(Cc2ccc3c(c2)nc(NC(=O)c2ccsc2)n3C[C@H](O)c2ccccc2)CC1"
Reply: 91.9

Query: What do you get for "COc1cccc(OC)c1C(=O)Nc1cccc(-c2nn3ccccc3c2-c2ccnc(Nc3cccc(F)c3)n2)c1" ?
Reply: 93.2

Query: Another compound: "COc1cc2c(Nc3ccc(NC(=O)c4ccccc4)cc3)ncnc2cc1OCCCN1CCOCC1"
Reply: 99.9

Query: What about this compound? "Cn1ccc2ncnc(Oc3ccc(NC(=O)Nc4cccc(C(F)(F)F)c4)c(F)c3)c21"
Reply: 35

Query: # repeat for CS(=O)c1ccc(-c2coc3ccc(-c4n[nH]c(=O)o4)cc23)cc1 (centres unmarked)
Reply: 17

Query: Same again, this time with "C[C@@H](Oc1cc(-n2cnc3cc(-c4cnn(C)c4)ccc32)sc1C(N)=O)c1ccccc1Cl"
Reply: 42

Query: // query: "Cc1cccc2c(-c3ccncc3)c(-c3ccc(F)cc3)nn12.Cl"
Reply: 6

Query: Quick one: Cc1nnc(-c2ccc3occ(-c4ccc(S(C)=O)cc4)c3n2)o1 (centres unmarked)
Reply: 0

Query: Try the compound "FC(F)(F)c1cc(Br)cc(Nc2nccc(-c3cnn4ncccc34)n2)c1"
Reply: 35

Query: Repeat with "Cn1ccc2ncnc(Oc3ccc(NC(=O)Nc4cc(C(C)(C)C)on4)c(Cl)c3)c21"
Reply: 71

Query: How about "COc1cccc(C2=C(Nc3cccc(Cl)c3)C(=O)NC2=O)c1" ?
Reply: 38

Query: Quick one: COC(=O)c1cccc(NC(=O)NC2CCN(c3ccnc(Nc4cc(OC)c(OC)c(OC)c4)n3)C2)c1 (centres unmarked)
Reply: 98.8

Query: Queued: "NC(=O)Nc1sc(-c2ccc(F)cc2)cc1C(N)=O"
Reply: 89

Query: Same read-out for CC(C(=O)NC1CCN(c2ccnc(Nc3ccc(F)cc3)n2)C1)c1ccc(Cl)cc1 (centres unmarked) ?
Reply: 7

Query: Next compound up: "Cl.Cl.NC[C@H](CC1CCCCC1)NC(=O)c1ccc(-c2ccnc3[nH]ccc23)s1"
Reply: 52

Query: Record: "COc1cc2nccc(Nc3ccc(Oc4ccccc4)cc3)c2cc1OC.Cl"
Reply: 99.9

* * *

Test system: FGFR4
Settings: concentration: 1 μM,replicates: in singlicate; n = 1
experimentalReadout: %Inh (%)
Only the number, expressed in %, is required.

Query: Requested field: %Inh. Item: CCN1CCN(CCCC(=O)Nc2n[nH]c3nc(-c4ccc(O)cc4)c(Br)cc23)CC1 [SB-731579]
Reply: 0

Query: # iterate: "O=C1NCCc2[nH]c(-c3ccncc3)cc21"
Reply: 0

Query: Try this compound next: "Cn1ccc2ncnc(Oc3ccc(NC(=O)Nc4cc(C(C)(C)C)on4)c(Cl)c3)c21"
Reply: 73

Query: Param item: "Cn1ccc2ncnc(Oc3ccc(NC(=O)Nc4cccc(C(F)(F)F)c4)c(Cl)c3)c21"
Reply: 14

Query: For "Cn1ccc2ncnc(Oc3ccc(NC(=O)Nc4cncc(C(F)(F)F)c4)c(Cl)c3)c21" then?
Reply: 0

Query: Next: COc1cc2ncn(-c3cc(OCC4CCCCC4)c(C(N)=O)s3)c2cc1OC [GSK204559]
Reply: 9

Query: Next record, please: COc1cccc(C2=C(Nc3cccc(Cl)c3)C(=O)NC2=O)c1 [SB-341556]
Reply: 15

Query: Next up: "O=C(Nc1ccc(Oc2ccc3nc(NC(=O)C4CC4)cn3n2)c(F)c1)c1cccn(-c2ccccc2)c1=O"
Reply: 6

Query: Next: COc1cccc(OC)c1C(=O)Nc1cccc(-c2nn3ccccc3c2-c2ccnc(Nc3cccc(F)c3)n2)c1 [GSK361065]
Reply: 0

Query: Input FC(F)(F)c1cc(Br)cc(Nc2nccc(-c3cnn4ncccc34)n2)c1 [GW810578]
Reply: 77

Query: Also, "CC(=O)Nc1nc2cnc(Nc3cc(NC(=O)c4cccc(CC(C)(C)C#N)c4)ccc3C)nc2s1" please.
Reply: 0

Query: Try this compound too: Cc1nnc(-c2ccc3occ(-c4ccc(S(C)=O)cc4)c3n2)o1 (centres unmarked)
Reply: 0

Query: What about this compound? NC(=O)Nc1sc(-c2ccc(F)cc2)cc1C(N)=O [GW789449]
Reply: 0

Query: Queued: CSc1nccc(-c2c(-c3ccc(F)cc3)ncn2CCCN2CCOCC2)n1.Cl [SB-217146]
Reply: 0

* * *

System: YANK1
Construct: gene STK32A
Conditions: concentration: 1 μM,replicates: in singlicate; n = 1
experimentalReadout: %Inh (%)
State just the number; it will be interpreted in %.

Query: // query %Inh value for entry COC(=O)c1cccc(NC(=O)NC2CCN(c3ccnc(Nc4cc(OC)c(OC)c(OC)c4)n3)C2)c1 (stereo not shown)
Reply: 12

Query: Input COc1cccc(CNC(=O)NC2CCN(c3ccnc(Nc4cc(OC)c(OC)c(OC)c4)n3)C2)c1 (stereo not shown)
Reply: 0

Query: Please give the result for "CNC(=O)c1ccccc1Nc1nc(Nc2cccc(CS(C)(=O)=O)c2)ncc1C.O=CO" too.
Reply: 44

Query: Thanks! And "Cl.c1ccc(Oc2ccc(Nc3ccnc4cc(-c5ccc(CN6CCNCC6)o5)ccc34)cc2)nc1" ?
Reply: 0

Query: Entry to check: "CN1CCN(CCCNc2nccc(-c3c(-c4ccc(F)cc4)nn4cc(C(N)=O)ccc34)n2)CC1"
Reply: 20

Query: Quick one: "COc1cc2ncn(-c3cc(OCC4CCCCC4)c(C(N)=O)s3)c2cc1OC"
Reply: 0

Query: Another compound: COc1cc(Nc2nccc(N3CCC(NC(=O)c4cccc(C#N)c4)C3)n2)cc(OC)c1OC (stereo not shown)
Reply: 0

Query: Then N#Cc1cccc(C(=O)NC2CCN(c3ccnc(Nc4ccc(F)cc4)n3)C2)c1 (stereo not shown) ?
Reply: 2

Query: Next entry: "CN(c1ccccc1CNc1nc(Nc2ccc3c(c2)CC(=O)N3)ncc1C(F)(F)F)S(C)(=O)=O"
Reply: 11

Query: Would you mind doing "Cn1ccc2ncnc(Oc3ccc(NC(=O)Nc4cc(C(C)(C)C)on4)c(Cl)c3)c21" as well?
Reply: 0

* * *

System: RSK2(Kin.Dom.2-C-terminal)
Construct: gene RPS6KA3
Details: concentration: 1 μM,replicates: in singlicate; n = 1
Assignment: determine reported %Inh for the given molecules.
Dear colleague, please return just the value in %, with no unit written.

Query: Quick one: %Inh of "Cn1ccc2ncnc(Oc3ccc(NC(=O)Nc4ccnc(C(F)(F)F)c4)c(Cl)c3)c21" ?
Reply: 35

Query: Same read-out for "COc1cc2ncn(-c3cc(OCC4CCCCC4)c(C(N)=O)s3)c2cc1OC" ?
Reply: 30

Query: Could you do the same for "O=C(Nc1cccc(C(F)(F)F)c1)c1cccc(Oc2ccc3nccn3n2)c1" , please?
Reply: 48

Source: paper PMC5540273
